Biological target: His6-tagged MLV IN (Moloney Murine Leukemia Virus)
Experiment: AlphaScreen or HTRF
readout type: pKd
Quick note: pKd means taking -log10 of the concentration in moles per liter.

Dear colleague, please send me the reported pKd for GST-tagged mBRD4_(ETSEED) (aa 601-721) (from UniProt Q9ESU6 601-721) (domain or fragment) when you can. 8.07

* * *

Molecular target: His6-tagged MLV IN (Moloney Murine Leukemia Virus)
Assay: AlphaScreen or HTRF
readout type: Kd (nM)
Numbers only; they are read as nM.

Dear colleague, please send me the reported Kd for GST-tagged mBRD4_(ETSEED) (aa 601-721) (from UniProt Q9ESU6 601-721) (domain or fragment) when you can. 58.7
